Source listed as patent US20240254089A1.

Exercise: for every item that follows, state its recorded IC50.
# target desc: human MRGPR X4 (Homo sapiens)
# Construct: expressed in transfected cells
# Sequence (Q96LA9 whole entry): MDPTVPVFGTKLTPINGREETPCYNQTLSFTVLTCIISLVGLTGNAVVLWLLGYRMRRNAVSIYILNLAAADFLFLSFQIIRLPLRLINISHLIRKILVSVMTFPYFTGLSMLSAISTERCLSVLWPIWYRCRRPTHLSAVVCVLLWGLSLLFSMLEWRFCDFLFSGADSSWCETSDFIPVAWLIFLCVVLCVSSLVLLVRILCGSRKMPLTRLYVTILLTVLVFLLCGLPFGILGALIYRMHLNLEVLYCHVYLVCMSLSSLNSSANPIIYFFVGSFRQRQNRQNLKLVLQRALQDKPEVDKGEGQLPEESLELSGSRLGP
# protocol description: MRGPR X4 antagonist activity, IP-One Gq HTRF assay in stably transfected HEK cells
# Format: cell-based

Entry CC(C)c1cccc(Cn2nc(C(=O)NCCc3nnc4ccccn34)c3ccccc32)c1 , system human MRGPR X4 (Homo sapiens): what IC50 was measured? 100 to 500 nM

Hello, I would appreciate it if you could give IC50 for each entry below.
1. Cn1ccc(CCNC(=O)c2nn(Cc3ccc(Cl)cc3)c3ccccc23)n1
2. O=C(NCCc1ccccc1OC(F)(F)F)c1cn(Cc2ccc(Cl)cc2)c2ccccc12
3. O=C(NCCc1nnc2ccccn12)c1nn(Cc2ccc(Cl)cc2)c2ccc(Cl)cc12
4. Cc1ccc(CCNC(=O)c2nn(Cc3ccc(OC(F)F)cc3)c3ccccc23)cc1
5. O=C(NCCc1nnc2ccccn12)c1nn(Cc2ccc(Cl)c(F)c2)c2ccccc12
6. COc1ccccc1OCCn1nc(C(=O)NCCc2nnc3ccccn23)c2ccccc21
7. Cc1ccccc1Cn1cc(C(=O)NCCc2cccnc2)c2ccccc21
8. O=C(NCCc1nnc2n1CCCC2)c1nn(Cc2ccc(Cl)cc2)c2ccccc12

1. 100 to 500 nM
2. 501 to 1000 nM
3. < 100 nM
4. 1000 to 2500 nM
5. < 100 nM
6. 501 to 1000 nM
7. > 2500 nM
8. < 100 nM

Hello, I would appreciate it if you could give IC50 for each entry below.
1. O=C(O)c1nn(Cc2ccc(OC(F)(F)F)cc2)c2ccccc12
2. O=C(NCCc1nnc2ccccn12)c1nn(Cc2ccc(C(F)(F)F)cc2)c2ccc(F)cc12
3. O=C(NCCc1nnc2ccccn12)c1nn(Cc2ccc(OC(F)F)cc2)c2ccccc12
4. O=C(O)c1nn(Cc2ccc(Cl)cc2)c2cccc(F)c12
5. Cc1cccc2c(CCNC(=O)c3nn(Cc4ccc(Cl)cc4)c4ccccc34)c[nH]c12
6. O=C(NCCc1nnc2n1CCCCC2)c1nn(Cc2ccc(Cl)cc2)c2ccc(Cl)cc12
7. O=C(NCc1ccc2ncccc2c1)c1nn(Cc2ccc(Cl)cc2)c2ccccc12
8. O=C(NCCc1nnc2ccccn12)c1nn(Cc2cc(F)cc(C(F)(F)F)c2)c2ccccc12

["1000 to 2500 nM", "< 100 nM", "< 100 nM", "> 2500 nM", "> 2500 nM", "< 100 nM", "> 2500 nM", "100 to 500 nM"]
